test-target: full-length beta-Catenin (Uniprot ID P35222) (Homo sapiens (Human)) (UniProt P35222)
Sequence (P35222 whole entry): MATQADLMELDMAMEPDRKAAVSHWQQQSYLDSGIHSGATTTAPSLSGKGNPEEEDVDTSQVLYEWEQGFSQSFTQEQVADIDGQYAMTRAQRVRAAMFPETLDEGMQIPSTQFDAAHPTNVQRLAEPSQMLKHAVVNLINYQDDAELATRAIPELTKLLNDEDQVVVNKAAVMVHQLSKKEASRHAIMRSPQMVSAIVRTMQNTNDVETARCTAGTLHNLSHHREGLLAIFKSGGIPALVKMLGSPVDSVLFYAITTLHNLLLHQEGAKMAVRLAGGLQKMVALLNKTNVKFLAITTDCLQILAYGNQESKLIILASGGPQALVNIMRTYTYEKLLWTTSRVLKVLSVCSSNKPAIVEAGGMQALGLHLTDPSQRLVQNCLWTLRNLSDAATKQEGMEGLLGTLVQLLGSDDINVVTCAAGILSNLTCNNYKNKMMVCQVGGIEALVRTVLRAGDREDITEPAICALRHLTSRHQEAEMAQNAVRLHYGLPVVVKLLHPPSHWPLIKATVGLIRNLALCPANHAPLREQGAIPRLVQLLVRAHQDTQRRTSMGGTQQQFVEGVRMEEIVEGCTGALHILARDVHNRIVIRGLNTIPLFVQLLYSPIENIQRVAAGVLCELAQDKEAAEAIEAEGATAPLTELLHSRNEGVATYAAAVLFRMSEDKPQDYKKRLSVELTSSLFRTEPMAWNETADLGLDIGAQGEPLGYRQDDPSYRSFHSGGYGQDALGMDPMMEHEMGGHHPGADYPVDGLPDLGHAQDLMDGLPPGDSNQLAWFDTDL
run-description: fluorescence polarization competition against 5FAM TCF4 10-53 probe
Starred links: 1 amine or outer side, 2 acyl side, 3 side chain; linkers in the order of their positions; H or OH if unused. Positions of bridges follow the written chain, without caps; N, C: chain ends. Non-standard residues stand in square brackets, D forms with d. Primed or numbered codes have the meaning given here. *: point of attachment. PyrS2 = (S)-3-amino-1-((pent-4-en-1-yloxy)carbonyl)pyrrolidine-3-carboxylic acid, C=CCCCOC(=O)N1CC[C@@](N[*:1])(C(=O)[*:2])C1; B5(3) = 2,2-bis(4-pentenyl)glycine (stitching residue), C=CCCCC(CCCC=C)(N[*:1])C(=O)[*:2]; BzAm2Allyl = N-terminal 2-allylbenzoic acid (acyl cap), C=CCc1ccccc1C(=O)*; 4pentenyl = N-terminal pent-4-enoic acid (acyl cap), C=CCCC(=O)*; 5hexenyl = N-terminal hex-5-enoic acid (acyl cap), C=CCCCC(=O)*; 5hexenyl″ = N-terminal hex-5-enoic acid cap, C=CCCCC(=O)*; Phe(3-COOH) = N[C@@H](Cc1cccc(C(=O)O)c1)C(=O)O; Bta = N[C@@H](Cc1csc2ccccc12)C(=O)O; 3Thi = N[C@@H](Cc1ccsc1)C(=O)O; αMeP = C[C@@]1(C(=O)O)CCCN1
Quick reference for IC50 among some binders
Respond with the bare value in nM.

{"binder": "5hexenyl-XD[B5(3)]AD[Phe(3-COOH)]AAF[PyrS2]L[3Thi][Bta]Q-NH2 (staple 3-10; staple (positions not given here); not fully specified (residue 1, bridges); printed as 5hexenyl-MePro-Asp-B5-Ala-Asp-3COOHF-Ala-Ala-Phe-PyrS2-Leu-3Thi-BztA-Gln-NH2; also: -CH=CH- in each staple reduced to -CH2-CH2-) [I-2604]", "assay-result": 1120}
{"binder": "4pentenyl-XD[B5(3)]ADDAAF[PyrS2]L[3Thi][Bta]Q-NH2 (staple 3-10; staple (positions not given here); not fully specified (residue 1, bridges); printed as 4pentenyl-MePro-Asp-B5-Ala-Asp-Asp-Ala-Ala-Phe-PyrS2-Leu-3Thi-BztA-Gln-NH2) [I-2599]", "assay-result": 234}
{"binder": "BzAm2Allyl-XD[B5(3)]ADDAAF[PyrS2]L[3Thi][Bta]Q-NH2 (staple 3-10; staple (positions not given here); not fully specified (residue 1, bridges); printed as BzAm2Allyl-MePro-Asp-B5-Ala-Asp-Asp-Ala-Ala-Phe-PyrS2-Leu-3Thi-BztA-Gln-NH2; also: -CH=CH- in each staple reduced to -CH2-CH2-) [I-2606]", "assay-result": 734}
{"binder": "BzAm2Allyl-XD[B5(3)]AD[Phe(3-COOH)]AAF[PyrS2]L[3Thi][Bta]Q-NH2 (staple 3-10; staple (positions not given here); not fully specified (residue 1, bridges); printed as BzAm2Allyl-MePro-Asp-B5-Ala-Asp-3COOHF-Ala-Ala-Phe-PyrS2-Leu-3Thi-BztA-Gln-NH2; also: -CH=CH- in each staple reduced to -CH2-CH2-) [I-2607]", "assay-result": 904}
{"binder": "4pentenyl-XD[B5(3)]ADDAAF[PyrS2]L[3Thi][Bta]Q-NH2 (staple 3-10; staple (positions not given here); not fully specified (residue 1, bridges); printed as 4pentenyl-MePro-Asp-B5-Ala-Asp-Asp-Ala-Ala-Phe-PyrS2-Leu-3Thi-BztA-Gln-NH2; also: -CH=CH- in each staple reduced to -CH2-CH2-) [I-2601]", "assay-result": 592}

Exercise: Give IC50 for {5hexenyl″}-[αMeP]D[B5(3)]ADDAAF[PyrS2]L[3Thi][Bta]Q-NH2 (staple 3-10; staple (positions not given here); not fully specified (bridges); printed as 5hexenyl-MePro-Asp-B5-Ala-Asp-Asp-Ala-Ala-Phe-PyrS2-Leu-3Thi-BztA-Gln-NH2) [I-2598]
Solution: 1350

Exercise: Give IC50 for 5hexenyl-XD[B5(3)]AD[Phe(3-COOH)]AAF[PyrS2]L[3Thi][Bta]Q-NH2 (staple 3-10; staple (positions not given here); not fully specified (residue 1, bridges); printed as 5hexenyl-MePro-Asp-B5-Ala-Asp-3COOHF-Ala-Ala-Phe-PyrS2-Leu-3Thi-BztA-Gln-NH2) [I-2602]
Solution: 8220

Exercise: Give IC50 for 4pentenyl-XD[B5(3)]AD[Phe(3-COOH)]AAF[PyrS2]L[3Thi][Bta]Q-NH2 (staple 3-10; staple (positions not given here); not fully specified (residue 1, bridges); printed as 4pentenyl-MePro-Asp-B5-Ala-Asp-3COOHF-Ala-Ala-Phe-PyrS2-Leu-3Thi-BztA-Gln-NH2; also: -CH=CH- in each staple reduced to -CH2-CH2-) [I-2605]
Solution: 608

Exercise: Give IC50 for 5hexenyl-XD[B5(3)]ADDAAF[PyrS2]L[3Thi][Bta]Q-NH2 (staple 3-10; staple (positions not given here); not fully specified (residue 1, bridges); printed as 5hexenyl-MePro-Asp-B5-Ala-Asp-Asp-Ala-Ala-Phe-PyrS2-Leu-3Thi-BztA-Gln-NH2; also: -CH=CH- in each staple reduced to -CH2-CH2-) [I-2609]
Solution: 2650
